subject-of-test: Phosphodiesterase II (PDE2) (Homo sapiens)
Construct: the recombinant plasmid pET15b-PDE2A (580–941) was donated
protocol-text: PDE2 enzyme inhibitory activity, AlphaScreen cAMP kit method
test-parameters: in vitro, enzyme level, seven concentrations, mean of at least three experiments
measured-property: IC50

Reference set, count: 5
1. Cc1ccc2c(c1)c(=O)oc1cc(O)ccc12    > 100 µM
2. CCOc1ccc2c(c1)oc(=O)c1cc(C)ccc12    > 100 µM
3. CCCOc1ccc2c(c1)oc(=O)c1cc(C)ccc12    > 100 µM
4. COc1cc(COc2ccc3c(c2)oc(=O)c2cc(C)ccc23)cc(OC)c1    > 100 µM
5. Cc1ccc2c(c1)c(=O)oc1cc(OC(C)C)ccc12    > 100 µM

For record CC(C)Oc1ccc2c3c(c(=O)oc2c1)CCCC3 the listed IC50 is 34.3 µM

For record Cc1ccc2c(c1)c(=O)oc1cc(OCC3OCCO3)ccc12 the listed IC50 is > 100 µM

For record CCCCCOc1ccc2c(c1)oc(=O)c1cc(C)ccc12 the listed IC50 is 34 µM

----------
subject-of-test: Phosphodiesterase II (PDE2) (Homo sapiens, UniProt O00408)
Construct: the recombinant plasmid pET15b-PDE2A (580–941) was donated
Sequence (O00408 580-941): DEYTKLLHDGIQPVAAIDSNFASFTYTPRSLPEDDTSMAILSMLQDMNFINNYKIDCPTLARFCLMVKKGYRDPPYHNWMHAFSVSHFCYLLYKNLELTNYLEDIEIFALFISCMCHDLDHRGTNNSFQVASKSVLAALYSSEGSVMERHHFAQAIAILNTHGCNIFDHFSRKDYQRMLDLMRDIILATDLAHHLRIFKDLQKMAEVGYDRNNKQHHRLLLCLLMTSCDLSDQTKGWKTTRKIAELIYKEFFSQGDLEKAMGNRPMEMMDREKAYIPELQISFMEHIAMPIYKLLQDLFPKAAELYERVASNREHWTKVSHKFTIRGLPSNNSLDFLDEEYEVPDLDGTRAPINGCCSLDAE
protocol-text: PDE2 enzyme inhibitory activity, AlphaScreen cAMP kit method
test-parameters: in vitro, enzyme level, seven concentrations, mean of at least three experiments
Entries and their IC50 values follow.

1) O=c1oc2cc(OCCC3OCCCO3)ccc2c2c1CCCC2 [Compound 4k]    > 100 µM
2) COc1cc(COc2ccc3c4c(c(=O)oc3c2)CCCC4)cc(OC)c1 [Compound 4m]    > 100 µM
3) O=c1oc2cc(OCC3CCOCC3)ccc2c2c1CCCC2 [Compound 4j]    > 100 µM
4) Cc1ccc2c(c1)c(=O)oc1cc(OCc3ccccc3F)ccc12 [Compound 2l]    > 100 µM
5) Cc1ccc2c(c1)c(=O)oc1cc(OCCC3OCCO3)ccc12 [Compound 2i]    > 100 µM
6) O=c1oc2cc(O)ccc2c2c1CCCC2 [Compound 3]    93.2 µM

For record Cc1ccc2c(c1)c(=O)oc1cc(OCC3CCCO3)ccc12 (stereo not drawn) [Compound 2g] the listed IC50 is > 100 µM

For record Cc1ccc2c(c1)c(=O)oc1cc(OCC3CCOCC3)ccc12 [Compound 2k] the listed IC50 is > 100 µM

For record CCOc1ccc2c3c(c(=O)oc2c1)CCCC3 [Compound 4a] the listed IC50 is > 100 µM

For record O=c1oc2cc(OCC3CCCCC3)ccc2c2c1CCCC2 [Compound 4i] the listed IC50 is > 100 µM

For record Cc1ccc2c(c1)c(=O)oc1cc(OCC3CCCCC3)ccc12 [Compound 2j] the listed IC50 is 65.7 µM

For record O=c1oc2cc(OCc3ccccc3F)ccc2c2c1CCCC2 [Compound 4l] the listed IC50 is > 100 µM

For record CCCOc1ccc2c3c(c(=O)oc2c1)CCCC3 [Compound 4b] the listed IC50 is > 100 µM

For record Cc1ccc2c(c1)c(=O)oc1cc(OCCC3OCCCO3)ccc12 [Compound 2m] the listed IC50 is > 100 µM

For record CCC(C)Oc1ccc2c(c1)oc(=O)c1cc(C)ccc12 (stereo not drawn) [Compound 2d] the listed IC50 is > 100 µM

For record O=c1oc2cc(OCC3CCCO3)ccc2c2c1CCCC2 (stereo not drawn) [Compound 4f] the listed IC50 is > 100 µM

For record CCC(C)Oc1ccc2c3c(c(=O)oc2c1)CCCC3 (stereo not drawn) [Compound 4d] the listed IC50 is > 100 µM

For record O=c1oc2cc(OCC3OCCO3)ccc2c2c1CCCC2 [Compound 4g] the listed IC50 is > 100 µM

For record O=c1oc2cc(OCCC3OCCO3)ccc2c2c1CCCC2 [Compound 4h] the listed IC50 is > 100 µM

For record Cc1ccc2c(c1)c(=O)oc1cc(OCC3CCCC3)ccc12 [Compound 2f] the listed IC50 is > 100 µM

For record CCCCCOc1ccc2c3c(c(=O)oc2c1)CCCC3 [Compound 4e] the listed IC50 is > 100 µM

----------
measured-property: melting point

Reference set, count: 6
1) Cc1ccc2c(c1)c(=O)oc1cc(OCC3CCCC3)ccc12    122.8 to 123.6 °C
2) CCOc1ccc2c3c(c(=O)oc2c1)CCCC3    104.2 to 105.6 °C
3) O=c1oc2cc(OCCC3OCCO3)ccc2c2c1CCCC2    111 to 112.3 °C
4) CCCOc1ccc2c3c(c(=O)oc2c1)CCCC3    107.1 to 108.3 °C
5) Cc1ccc2c(c1)c(=O)oc1cc(OC(C)C)ccc12    102.3 to 103 °C
6) O=c1oc2cc(OCc3ccccc3F)ccc2c2c1CCCC2    124.2 to 125.6 °C

Kindly consider the entry below.
For record CCC(C)Oc1ccc2c3c(c(=O)oc2c1)CCCC3 (stereo not shown) the listed melting point is 74 to 74.2 °C

----------
measured-property: melting point

1. Cc1ccc2c(c1)c(=O)oc1cc(OCC3CCOCC3)ccc12    148 to 148.6 °C
2. O=c1oc2cc(OCC3OCCO3)ccc2c2c1CCCC2    128.1 to 129.5 °C
3. CC(C)Oc1ccc2c3c(c(=O)oc2c1)CCCC3    85.4 to 87.5 °C

Kindly consider the entry below.
For record O=c1oc2cc(OCC3CCCO3)ccc2c2c1CCCC2 (stereo not shown) the listed melting point is 112.2 to 114 °C

----------
measured-property: melting point

Reference set, count: 3
1. COc1cc(COc2ccc3c4c(c(=O)oc3c2)CCCC4)cc(OC)c1 [Compound 4m]    98.5 to 99.2 °C
2. Cc1ccc2c(c1)c(=O)oc1cc(OCC3CCCO3)ccc12 (stereo not shown) [Compound 2g]    122.8 to 123.6 °C
3. Cc1ccc2c(c1)c(=O)oc1cc(OCCC3OCCCO3)ccc12 [Compound 2m]    170.1 to 172 °C

For record O=c1oc2cc(OCC3CCOCC3)ccc2c2c1CCCC2 [Compound 4j] the listed melting point is 124.6 to 125.2 °C

For record Cc1ccc2c(c1)c(=O)oc1cc(OCc3ccccc3F)ccc12 [Compound 2l] the listed melting point is 154.9 to 155.5 °C

For record O=c1oc2cc(OCC3CCCCC3)ccc2c2c1CCCC2 [Compound 4i] the listed melting point is 107.2 to 109.3 °C

For record O=c1oc2cc(OCCC3OCCCO3)ccc2c2c1CCCC2 [Compound 4k] the listed melting point is 107.5 to 108.4 °C

For record CCCCCOc1ccc2c3c(c(=O)oc2c1)CCCC3 [Compound 4e] the listed melting point is 110.6 to 112.4 °C

For record CCCOc1ccc2c(c1)oc(=O)c1cc(C)ccc12 [Compound 2b] the listed melting point is 112.3 to 112.6 °C

For record Cc1ccc2c(c1)c(=O)oc1cc(OCC3CCCCC3)ccc12 [Compound 2j] the listed melting point is 113.3 to 115.1 °C

----------
Entries and their melting point values follow.

1. Cc1ccc2c(c1)c(=O)oc1cc(OCC3OCCO3)ccc12    148.2 to 148.8 °C
2. COc1cc(COc2ccc3c(c2)oc(=O)c2cc(C)ccc23)cc(OC)c1    158.7 to 160.2 °C

For record CCC(C)Oc1ccc2c(c1)oc(=O)c1cc(C)ccc12 (stereo not drawn) the listed melting point is 62.6 to 63.4 °C
